Assay: in vivo
Settings: CD1 nude, mouse, 0.5 nmol/mouse, total radioactivity, Pancreas uptake

>  <compound>
Cc1ccc(CCCC(=O)NCCOCCOCCOCCOCCC(=O)NCCCC[C@H](NC(=O)CN2CCN(CC(=O)O)CCN(CC(=O)O)CCN(CC(=O)O)CC2)C(=O)N[C@@H](CC(=O)O)C(=O)N[C@@H](CC2CCCCC2)C(=O)N[C@@H](Cc2ccccc2)C(=O)N[C@H](CO)C(=O)N[C@H](CCCNC(=N)N)C(=O)N[C@@H](Cc2ccc(O)cc2)C(=O)N[C@@H](CC(C)C)C(=O)N[C@@H](Cc2c[nH]c3ccccc23)C(=O)N[C@@H](CO)C(N)=O)cc1 [[^177Lu]Lu-uPAR-11, metal not drawn]

>  <tissue uptake at 1 h / %ID/g>
1.7

$$$$

====

The reader will find reported tissue uptake at 24 h values listed item by item below.
Assay: in vivo
Conditions: CD1 nude, mouse, 0.5 nmol/mouse, total radioactivity, Liver uptake
assay_metric: tissue uptake at 24 h (%ID/g)

>  <molecule>
Cc1ccc(CCCC(=O)NCCOCCOCCOCCOCCC(=O)NCCCC[C@H](NC(=O)CN2CCN(CC(=O)O)CCN(CC(=O)O)CCN(CC(=O)O)CC2)C(=O)N[C@@H](CC(=O)O)C(=O)N[C@@H](CC2CCCCC2)C(=O)N[C@@H](Cc2ccccc2)C(=O)N[C@H](CO)C(=O)N[C@H](CCCNC(=N)N)C(=O)N[C@@H](Cc2ccc(O)cc2)C(=O)N[C@@H](CC(C)C)C(=O)N[C@@H](Cc2c[nH]c3ccccc23)C(=O)N[C@@H](CO)C(N)=O)cc1 [[^177Lu]Lu-uPAR-11, metal not drawn]

>  <data_value>
0.33

$$$$
>  <molecule>
Cc1ccc(CCCC(=O)NCCOCCOCCOCCOCCC(=O)NC[C@H](NC(=O)CN2CCN(CC(=O)O)CCN(CC(=O)O)CCN(CC(=O)O)CC2)C(=O)N[C@@H](CC(=O)O)C(=O)N[C@@H](CC2CCCCC2)C(=O)N[C@@H](Cc2ccccc2)C(=O)N[C@H](CO)C(=O)N[C@H](CCCNC(=N)N)C(=O)N[C@@H](Cc2ccc(O)cc2)C(=O)N[C@@H](CC(C)C)C(=O)N[C@@H](Cc2c[nH]c3ccccc23)C(=O)N[C@@H](CO)C(N)=O)cc1 [[^177Lu]Lu-uPAR-14, metal not drawn]

>  <data_value>
0.47

$$$$
>  <molecule>
Cc1ccc(CCCC(=O)NCCCCCCCC(=O)NCCCC[C@H](NC(=O)CN2CCN(CC(=O)O)CCN(CC(=O)O)CCN(CC(=O)O)CC2)C(=O)N[C@@H](CC(=O)O)C(=O)N[C@@H](CC2CCCCC2)C(=O)N[C@@H](Cc2ccccc2)C(=O)N[C@H](CO)C(=O)N[C@H](CCCNC(=N)N)C(=O)N[C@@H](Cc2ccc(O)cc2)C(=O)N[C@@H](CC(C)C)C(=O)N[C@@H](Cc2c[nH]c3ccccc23)C(=O)N[C@@H](CO)C(N)=O)cc1 [[^177Lu]Lu-uPAR-12, metal not drawn]

>  <data_value>
4.2

$$$$
>  <molecule>
Cc1ccc(CCCC(=O)NCCOCCOCCOCCOCCOCCC(=O)NCCCC[C@H](NC(=O)CN2CCN(CC(=O)O)CCN(CC(=O)O)CCN(CC(=O)O)CC2)C(=O)N[C@@H](CC(=O)O)C(=O)N[C@@H](CC2CCCCC2)C(=O)N[C@@H](Cc2ccccc2)C(=O)N[C@H](CO)C(=O)N[C@H](CCCNC(=N)N)C(=O)N[C@@H](Cc2ccc(O)cc2)C(=O)N[C@@H](CC(C)C)C(=O)N[C@@H](Cc2c[nH]c3ccccc23)C(=O)N[C@@H](CO)C(N)=O)cc1 [[^177Lu]Lu-uPAR-18, metal not drawn]

>  <data_value>
0.38

$$$$

====

Assay: physchem
Type: physicochemical
Details: pH 7.4
The reader will find reported logD values listed item by item below.

>  <compound>
Cc1ccc(CCCC(=O)NCCOCCOCCOCCOCCC(=O)NCCCC[C@H](NC(=O)CC[C@H](C(=O)O)N2CCN(CC(=O)O)CCN(CC(=O)O)CCN(CC(=O)O)CC2)C(=O)N[C@@H](CC(=O)O)C(=O)N[C@@H](CC2CCCCC2)C(=O)N[C@@H](Cc2ccccc2)C(=O)N[C@H](CO)C(=O)N[C@H](CCCNC(=N)N)C(=O)N[C@@H](Cc2ccc(O)cc2)C(=O)N[C@@H](CC(C)C)C(=O)N[C@@H](Cc2c[nH]c3ccccc23)C(=O)N[C@@H](CO)C(N)=O)cc1 [[^177Lu]Lu-uPAR-17, metal not drawn]

>  <logD>
-1.56

$$$$
>  <compound>
Cc1ccc(CCCC(=O)NCCOCCOCCOCCC(=O)NCCCC[C@H](NC(=O)CN2CCN(CC(=O)O)CCN(CC(=O)O)CCN(CC(=O)O)CC2)C(=O)N[C@@H](CC(=O)O)C(=O)N[C@@H](CC2CCCCC2)C(=O)N[C@@H](Cc2ccccc2)C(=O)N[C@H](CO)C(=O)N[C@H](CCCNC(=N)N)C(=O)N[C@@H](Cc2ccc(O)cc2)C(=O)N[C@@H](CC(C)C)C(=O)N[C@@H](Cc2c[nH]c3ccccc23)C(=O)N[C@@H](CO)C(N)=O)cc1 [[^177Lu]Lu-uPAR-15, metal not drawn]

>  <logD>
-0.03

$$$$
>  <compound>
Cc1ccc(CCCC(=O)NCCOCCOCCOCCOCCC(=O)NCCCC[C@H](NC(=O)CN2CCN(CC(=O)O)CCN(CC(=O)O)CCN(CC(=O)O)CC2)C(=O)N[C@@H](CC(=O)O)C(=O)N[C@@H](CC2CCCCC2)C(=O)N[C@@H](Cc2ccccc2)C(=O)N[C@H](CO)C(=O)N[C@H](CCCNC(=N)N)C(=O)N[C@@H](Cc2ccc(O)cc2)C(=O)N[C@@H](CC(C)C)C(=O)N[C@@H](Cc2c[nH]c3ccccc23)C(=O)N[C@@H](CO)C(N)=O)cc1 [[^177Lu]Lu-uPAR-11, metal not drawn]

>  <logD>
-0.26

$$$$
>  <compound>
Cc1ccc(CCCC(=O)NCCOCCOCCOCCOCCOCCC(=O)NCCCC[C@H](NC(=O)CN2CCN(CC(=O)O)CCN(CC(=O)O)CCN(CC(=O)O)CC2)C(=O)N[C@@H](CC(=O)O)C(=O)N[C@@H](CC2CCCCC2)C(=O)N[C@@H](Cc2ccccc2)C(=O)N[C@H](CO)C(=O)N[C@H](CCCNC(=N)N)C(=O)N[C@@H](Cc2ccc(O)cc2)C(=O)N[C@@H](CC(C)C)C(=O)N[C@@H](Cc2c[nH]c3ccccc23)C(=O)N[C@@H](CO)C(N)=O)cc1 [[^177Lu]Lu-uPAR-18, metal not drawn]

>  <logD>
-0.5

$$$$
>  <compound>
Cc1ccc(CCCC(=O)NCCOCCOCCOCCOCCC(=O)NC[C@H](NC(=O)CN2CCN(CC(=O)O)CCN(CC(=O)O)CCN(CC(=O)O)CC2)C(=O)N[C@@H](CC(=O)O)C(=O)N[C@@H](CC2CCCCC2)C(=O)N[C@@H](Cc2ccccc2)C(=O)N[C@H](CO)C(=O)N[C@H](CCCNC(=N)N)C(=O)N[C@@H](Cc2ccc(O)cc2)C(=O)N[C@@H](CC(C)C)C(=O)N[C@@H](Cc2c[nH]c3ccccc23)C(=O)N[C@@H](CO)C(N)=O)cc1 [[^177Lu]Lu-uPAR-14, metal not drawn]

>  <logD>
-0.13

$$$$

====

Assay: in vivo
Details: CD1 nude, mouse, 0.5 nmol/mouse, total radioactivity, Pancreas uptake
The reader will find reported tissue uptake at 4 h values listed item by item below.
assay_metric: tissue uptake at 4 h (%ID/g)

>  <molecule>
Cc1ccc(CCCC(=O)NCCOCCOCCOCCC(=O)NCCCC[C@H](NC(=O)CN2CCN(CC(=O)O)CCN(CC(=O)O)CCN(CC(=O)O)CC2)C(=O)N[C@@H](CC(=O)O)C(=O)N[C@@H](CC2CCCCC2)C(=O)N[C@@H](Cc2ccccc2)C(=O)N[C@H](CO)C(=O)N[C@H](CCCNC(=N)N)C(=O)N[C@@H](Cc2ccc(O)cc2)C(=O)N[C@@H](CC(C)C)C(=O)N[C@@H](Cc2c[nH]c3ccccc23)C(=O)N[C@@H](CO)C(N)=O)cc1 [[^177Lu]Lu-uPAR-15, metal not drawn]

>  <unit_descriptor>
%ID/g

>  <data_value>
0.61

$$$$
>  <molecule>
Cc1ccc(CCCC(=O)NCCOCCOCCOCCOCCOCCC(=O)NCCCC[C@H](NC(=O)CN2CCN(CC(=O)O)CCN(CC(=O)O)CCN(CC(=O)O)CC2)C(=O)N[C@@H](CC(=O)O)C(=O)N[C@@H](CC2CCCCC2)C(=O)N[C@@H](Cc2ccccc2)C(=O)N[C@H](CO)C(=O)N[C@H](CCCNC(=N)N)C(=O)N[C@@H](Cc2ccc(O)cc2)C(=O)N[C@@H](CC(C)C)C(=O)N[C@@H](Cc2c[nH]c3ccccc23)C(=O)N[C@@H](CO)C(N)=O)cc1 [[^177Lu]Lu-uPAR-18, metal not drawn]

>  <unit_descriptor>
%ID/g

>  <data_value>
0.63

$$$$

Hello, the source for this data is paper PMC12920294, in case you need it.
